# Assay summary: Cytotoxicity against FEA cells assessed as reduction in cell viability incubated for 24 hrs by MTT assay
# Type: toxicity, cell-based, Felis catus
# Condition parameters: cat
Lab note - cut at 50 µM for CC50 at 24 h: met if strictly below, not met if not.

Task item: Given the entry FC(F)(F)Oc1ccc(/N=c2\ssnc2Cl)cc1 , would its reported CC50 at 24 h be below 50 µM?
Reply: not met

Task item: Please determine if Fc1ccc(/N=c2\ssnc2Cl)cc1 is below 50 µM in terms of CC50 at 24 h.
Reply: not met

Task item: Item FC(F)(F)c1ccc(/N=c2\ssnc2Cl)cc1 : CC50 at 24 h beneath 50 µM, strictly?
Reply: not met

Task item: Does the reported CC50 at 24 h of the following compound sit strictly below 50 µM? Cc1cc(OC(F)(F)F)ccc1/N=c1\ssnc1Cl
Reply: not met

Task item: Just wondering, is CC50 at 24 h of Clc1nss/c1=N\c1cc(-c2ccccc2)n[nH]1 below 50 µM?
Reply: met

Task item: Strictly below 50 µM in CC50 at 24 h? COc1cccc(/N=c2\ssnc2Cl)n1
Reply: met

Task item: Would you kindly verify if CC50 at 24 h of Clc1nss/c1=N\c1ccc(I)cc1 is strictly less than 50 µM?
Reply: met

Task item: Here's an entry: Clc1nss/c1=N\c1ccc(Oc2ccccc2)cc1 . Is its CC50 at 24 h below 50 µM?
Reply: not met

Task item: Please determine if Clc1nss/c1=N\c1ccccn1 is below 50 µM in terms of CC50 at 24 h.
Reply: met

Task item: Hello, is CC50 at 24 h of the following compound strictly smaller than 50 µM? Fc1ccc(F)c(/N=c2\ssnc2Cl)c1
Reply: not met

Task item: CC50 at 24 h under 50 µM? Item: FC(F)(F)Oc1ccc(/N=c2\ssnc2Cl)cc1Br
Reply: not met

Task item: Does the reported CC50 at 24 h of the following compound sit strictly below 50 µM? FC(F)(F)Oc1ccc(/N=c2\ssnc2Cl)cc1Cl
Reply: not met

Task item: # check: CC50 at 24 h < 50 µM for CSc1ccc(/N=c2\ssnc2Cl)cc1
Reply: not met

Task item: Regarding Cc1cc(/N=c2\ssnc2Cl)n[nH]1 , kindly confirm whether its CC50 at 24 h is beneath 50 µM.
Reply: not met

Task item: Hello, is CC50 at 24 h of the following compound strictly smaller than 50 µM? COc1cccnc1/N=c1\ssnc1Cl
Reply: met

Task item: CC50 at 24 h strictly < 50 µM for this compound? Clc1nss/c1=N\c1ccc(Br)cc1
Reply: met

Task item: Record Clc1nss/c1=N\c1cccc(Br)c1 : is its CC50 at 24 h strictly below 50 µM?
Reply: not met

Task item: Is CC50 at 24 h strictly under 50 µM for the entry CCOc1cccnc1/N=c1\ssnc1Cl ?
Reply: met

Task item: Lab note: CC50 at 24 h threshold 50 µM. Does this compound come in strictly under it? CCCCOc1ccc(/N=c2\ssnc2Cl)cc1
Reply: not met

Task item: Strictly below 50 µM: is that where CC50 at 24 h of Clc1nss/c1=N\c1ccc2c(c1)OCO2 sits?
Reply: not met

Task item: Quick check: does O=[N+]([O-])c1cccnc1/N=c1\ssnc1Cl have CC50 at 24 h under 50 µM?
Reply: met

Source of measurements: ChEMBL document CHEMBL5126585
